Assay: recombinant barcode read abundance after kanamycin selection (control-corrected) (log10(CPM+1)); higher = more efficient recombination; sequences stand for … in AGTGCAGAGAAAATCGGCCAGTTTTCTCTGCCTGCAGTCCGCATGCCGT…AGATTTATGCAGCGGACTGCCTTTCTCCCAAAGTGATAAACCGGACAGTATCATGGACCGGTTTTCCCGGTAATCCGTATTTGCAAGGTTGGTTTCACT; site = the 11-nt target;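 note: IS621 recombinase and bridge RNA in Escherichia coli cells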
Would you mind telling me the reported recombinant barcode read abundance (log10) of each entry?
Answer with a number only.

Q) Recall and state the measured recombinant barcode read abundance (log10) for TTCTGTCCTTGGGTTCTAACCTGTTGCCT (site TTCTATCCTAG) .
A) 0.0361

Q) Recall and state the measured recombinant barcode read abundance (log10) for TGTGAGTCTTGGGTTCTAACCTGTTGCCT (site TGTGAGTCTAC) .
A) 0.73

Q) Recall and state the measured recombinant barcode read abundance (log10) for CGACAGTCTTGGGTTCTAACCTGTTGCGT (site CGGCAGTCTAC) .
A) 0.153

Q) Recall and state the measured recombinant barcode read abundance (log10) for GTAGGCGCTTGGGTTCTAACCTGTTGCCT (site GTTGGCGCTAG) .
A) 0.0331

Q) Recall and state the measured recombinant barcode read abundance (log10) for GTCAACCCTTGGGTTCTAACCTGTTGCTG (site GTCAACCCTCA) .
A) 2.49

Q) Recall and state the measured recombinant barcode read abundance (log10) for GCGTCGTCTTGGGTTCTAACCTGTTGCCT (site GCTTCGTCTAG) .
A) 0.229

Q) Recall and state the measured recombinant barcode read abundance (log10) for GCCCTTGCTTGGGTTCTAACCTGTTGCCT (site GAACTTGCTAG) .
A) 0.114

Q) Recall and state the measured recombinant barcode read abundance (log10) for GACCACTCTTGGGTTCTAACCTGTTGCCT (site TACCACTCTAG) .
A) 1.42

Q) Recall and state the measured recombinant barcode read abundance (log10) for CCTTAGACTTGGGTTCTAACCTGTTGCGT (site CCTAATACTAC) .
A) 0.107

Q) Recall and state the measured recombinant barcode read abundance (log10) for ATACGTTCTTGGGTTCTAACCTGTTGCAT (site ATACGTTCTAT) .
A) 1.12

Q) Recall and state the measured recombinant barcode read abundance (log10) for TGTCGGCCTTGGGTTCTAACCTGTTGCTT (site CTATTTACTCC) .
A) 0.107

Q) Recall and state the measured recombinant barcode read abundance (log10) for TGTATGACTTGGGTTCTAACCTGTTGCCT (site CGTATGACTAG) .
A) 0.0259

Q) Recall and state the measured recombinant barcode read abundance (log10) for CTGCACCCTTGGGTTCTAACCTGTTGCTA (site GGCGGAGCTCG) .
A) 0.378

Q) Recall and state the measured recombinant barcode read abundance (log10) for ACCGACCCTTGGGTTCTAACCTGTTGCCG (site ACCGACCCTCG) .
A) 1.47

Q) Recall and state the measured recombinant barcode read abundance (log10) for GTACAATCTTGGGTTCTAACCTGTTGCCT (site TTACAATCTAG) .
A) 0.371

Q) Recall and state the measured recombinant barcode read abundance (log10) for CCAGAAGCTTGGGTTCTAACCTGTTGCCT (site CCAGCAGCTAG) .
A) 0.222

Q) Recall and state the measured recombinant barcode read abundance (log10) for TCGGATACTTGGGTTCTAACCTGTTGCCT (site TCGGATACTAG) .
A) 1.54

Q) Recall and state the measured recombinant barcode read abundance (log10) for TAGTTAACTTGGGTTCTAACCTGTTGCCA (site TAGTTGACTTG) .
A) 0.0635

Q) Recall and state the measured recombinant barcode read abundance (log10) for GCTCGACCTTGGGTTCTAACCTGTTGCTG (site CGCTCCTCTAT) .
A) 0.18

Q) Recall and state the measured recombinant barcode read abundance (log10) for GTACAATCTTGGGTTCTAACCTGTTGCCT (site CTACAATCTAG) .
A) 0.339

Q) Recall and state the measured recombinant barcode read abundance (log10) for TAGTATCCTTGGGTTCTAACCTGTTGCTA (site TAGTATCCTTA) .
A) 0.714

Q) Recall and state the measured recombinant barcode read abundance (log10) for ACCCCTCCTTGGGTTCTAACCTGTTGCCA (site ACCCCTCCTTG) .
A) 1.4

Q) Recall and state the measured recombinant barcode read abundance (log10) for ACAGACGCTTGGGTTCTAACCTGTTGCCT (site ACAGACGCTAG) .
A) 0.721

Q) Recall and state the measured recombinant barcode read abundance (log10) for GTATCTCCTTGGGTTCTAACCTGTTGCGG (site GTATCTCCTCC) .
A) 0.0723

Q) Recall and state the measured recombinant barcode read abundance (log10) for AGCAGGACTTGGGTTCTAACCTGTTGCCG (site AGCACGACTCA) .
A) 0.0667

Q) Recall and state the measured recombinant barcode read abundance (log10) for TGACGTCCTTGGGTTCTAACCTGTTGCCT (site TGACGTCCTAC) .
A) 0.315

Q) Recall and state the measured recombinant barcode read abundance (log10) for TAACACTCTTGGGTTCTAACCTGTTGCCT (site TAACACTCTAG) .
A) 2

Q) Recall and state the measured recombinant barcode read abundance (log10) for CAACCGCCTTGGGTTCTAACCTGTTGCCT (site CAACCGCCTAG) .
A) 1.43

Q) Recall and state the measured recombinant barcode read abundance (log10) for TCCTAAGCTTGGGTTCTAACCTGTTGCTA (site TCCCAAGCTTA) .
A) 0.227

Q) Recall and state the measured recombinant barcode read abundance (log10) for GCCCCGCCTTGGGTTCTAACCTGTTGCAG (site GCCTCGCCTCT) .
A) 0.0556

Q) Recall and state the measured recombinant barcode read abundance (log10) for GCCTGGTCTTGGGTTCTAACCTGTTGCCT (site GCCTGGTCTAG) .
A) 1.01

Q) Recall and state the measured recombinant barcode read abundance (log10) for TTCAAATCTTGGGTTCTAACCTGTTGCCT (site TTCAAACCTAG) .
A) 0.242

Q) Recall and state the measured recombinant barcode read abundance (log10) for CCGGTGCCTTGGGTTCTAACCTGTTGCCT (site CGGGTGCCTAG) .
A) 1.03

Q) Recall and state the measured recombinant barcode read abundance (log10) for CGGGCCTCTTGGGTTCTAACCTGTTGCAC (site CGGGCCTCTGT) .
A) 3.19

Q) Recall and state the measured recombinant barcode read abundance (log10) for TCGAGTTCTTGGGTTCTAACCTGTTGCCT (site TCGAGTCCTAG) .
A) 0.0637

Q) Recall and state the measured recombinant barcode read abundance (log10) for AACTAATCTTGGGTTCTAACCTGTTGCCT (site AACTGATCTAG) .
A) 0.0845

Q) Recall and state the measured recombinant barcode read abundance (log10) for TAGAACTCTTGGGTTCTAACCTGTTGCGC (site ACATTTCCTAT) .
A) 0.0572

Q) Recall and state the measured recombinant barcode read abundance (log10) for GTATCCACTTGGGTTCTAACCTGTTGCTA (site GTATCCACTTA) .
A) 1.47

Q) Recall and state the measured recombinant barcode read abundance (log10) for CTGATGACTTGGGTTCTAACCTGTTGCCT (site CTGATTACTAG) .
A) 0.0174

Q) Recall and state the measured recombinant barcode read abundance (log10) for CTACAACCTTGGGTTCTAACCTGTTGCTT (site CTACACCCTAA) .
A) 0.0399

Q) Recall and state the measured recombinant barcode read abundance (log10) for TGGGACACTTGGGTTCTAACCTGTTGCCG (site AGGGACTCTCG) .
A) 0.403

Q) Recall and state the measured recombinant barcode read abundance (log10) for ATGCGAGCTTGGGTTCTAACCTGTTGCTG (site ATGCGAGCTCA) .
A) 1.19
